- Test system: LXRa homodimer (NR concentration 270 nM)
- measurement_description: PBM binding z-score (relative to random genomic background probes); higher = stronger binding; sequences stand for … in GC…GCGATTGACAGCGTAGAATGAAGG
PBM binding z-score below 0.8 gives No; PBM binding z-score at or above it gives Yes.

Solved entries (count: 4):
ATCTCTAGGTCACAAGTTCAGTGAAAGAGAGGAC :: Yes
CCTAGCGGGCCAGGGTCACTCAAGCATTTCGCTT :: No
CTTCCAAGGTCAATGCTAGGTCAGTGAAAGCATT :: Yes
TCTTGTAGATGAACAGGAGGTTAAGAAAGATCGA :: No

Continue with the sequence presented below.
## Task Evaluate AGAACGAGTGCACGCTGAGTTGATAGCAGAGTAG : PBM binding z-score at minimum 0.8?
## Result No

====

- Tested on: PPARa:RXRa (NR concentration 270 nM, RXRa partner concentration 90 nM)
- measurement_description: PBM binding z-score (relative to random genomic background probes); higher = stronger binding; sequences stand for … in GC…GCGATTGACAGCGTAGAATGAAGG
assay_readout: PBM binding z-score
The response must contain the number and no unit.

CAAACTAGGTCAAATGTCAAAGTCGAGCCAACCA :: 6.77
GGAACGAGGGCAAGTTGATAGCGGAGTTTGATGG :: 1.7
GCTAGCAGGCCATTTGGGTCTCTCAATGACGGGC :: -0.217
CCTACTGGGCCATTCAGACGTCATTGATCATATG :: 0.168

Consider now this further sequence.
## Task Endpoint output: PBM binding z-score of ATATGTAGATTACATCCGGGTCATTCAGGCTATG . Value?
## Result 2.51

====

Known PBM binding z-score of a selection of sequences
- System: RARa homodimer (NR concentration 270 nM)
- measurement_description: PBM binding z-score (relative to random genomic background probes); higher = stronger binding; sequences stand for … in GC…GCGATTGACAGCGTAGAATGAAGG

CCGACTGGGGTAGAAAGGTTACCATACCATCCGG :: 0.375

## Task Given the entry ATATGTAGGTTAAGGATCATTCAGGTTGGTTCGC , what PBM binding z-score was observed with RARa homodimer (NR concentration 270 nM)?
## Result 1.1

## Task Given the entry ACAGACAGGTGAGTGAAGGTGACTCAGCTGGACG , what PBM binding z-score was observed with RARa homodimer (NR concentration 270 nM)?
## Result 0.0445

## Task Given the entry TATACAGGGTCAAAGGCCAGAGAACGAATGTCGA , what PBM binding z-score was observed with RARa homodimer (NR concentration 270 nM)?
## Result 1.1

## Task Given the entry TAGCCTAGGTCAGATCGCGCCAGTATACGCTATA , what PBM binding z-score was observed with RARa homodimer (NR concentration 270 nM)?
## Result -0.794

## Task Given the entry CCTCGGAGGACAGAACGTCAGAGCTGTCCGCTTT , what PBM binding z-score was observed with RARa homodimer (NR concentration 270 nM)?
## Result -0.587

====

- System: PPARg DBDmut:RXRa IVT, anti-PPARg (DBD mutation: PPARg1 K132A/R137A, NR concentration 270 nM, RXRa partner concentration 90 nM)
- measurement_description: PBM binding z-score (relative to random genomic background probes); higher = stronger binding; sequences stand for … in GC…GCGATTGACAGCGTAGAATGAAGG
assay_readout: PBM binding z-score
The response must contain the number and no unit.

Here is how some sequences turned out for PBM binding z-score.
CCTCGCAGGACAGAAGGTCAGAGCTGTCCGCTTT :: -2.21
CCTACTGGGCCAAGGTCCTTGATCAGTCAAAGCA :: -1.28
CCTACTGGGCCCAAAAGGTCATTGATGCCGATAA :: -0.622

## Task Endpoint output: PBM binding z-score of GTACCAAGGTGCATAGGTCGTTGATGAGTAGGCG . Value?
## Result -0.485

## Task Endpoint output: PBM binding z-score of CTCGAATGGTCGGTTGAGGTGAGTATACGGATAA . Value?
## Result 0.733

## Task Endpoint output: PBM binding z-score of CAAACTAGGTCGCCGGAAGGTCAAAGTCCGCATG . Value?
## Result 2.57

## Task Endpoint output: PBM binding z-score of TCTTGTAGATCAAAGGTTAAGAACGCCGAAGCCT . Value?
## Result 0.351

## Task Endpoint output: PBM binding z-score of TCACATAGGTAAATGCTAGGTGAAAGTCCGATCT . Value?
## Result 0.19

## Task Endpoint output: PBM binding z-score of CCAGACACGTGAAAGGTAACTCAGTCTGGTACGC . Value?
## Result -0.212

## Task Endpoint output: PBM binding z-score of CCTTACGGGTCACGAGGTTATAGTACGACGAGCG . Value?
## Result 1.09

## Task Endpoint output: PBM binding z-score of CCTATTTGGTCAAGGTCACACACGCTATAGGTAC . Value?
## Result 1.27

## Task Endpoint output: PBM binding z-score of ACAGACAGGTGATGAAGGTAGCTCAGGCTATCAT . Value?
## Result -0.42

====

- Test system: RARg homodimer (NR concentration 270 nM)
- measurement_description: PBM binding z-score (relative to random genomic background probes); higher = stronger binding; sequences stand for … in GC…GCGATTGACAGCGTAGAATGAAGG
Using PBM binding z-score as the sorting value, the categories are lower bin (below 0.8), middle bin (0.8 to below 3), upper bin (3 or more)

## Task Any idea which band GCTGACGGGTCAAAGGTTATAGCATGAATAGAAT is in?
## Result upper bin

## Task Any idea which band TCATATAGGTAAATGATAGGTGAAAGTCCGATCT is in?
## Result lower bin

## Task Any idea which band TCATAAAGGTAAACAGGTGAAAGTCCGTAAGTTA is in?
## Result middle bin

## Task Any idea which band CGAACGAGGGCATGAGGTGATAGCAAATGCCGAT is in?
## Result middle bin

## Task Any idea which band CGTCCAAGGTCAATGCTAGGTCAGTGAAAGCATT is in?
## Result upper bin

====

- System: RARg homodimer (NR concentration 270 nM)
- measurement_description: PBM binding z-score (relative to random genomic background probes); higher = stronger binding; sequences stand for … in GC…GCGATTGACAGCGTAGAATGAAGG
PBM binding z-score below 2 gives NOT MET; PBM binding z-score at or above it gives MET.

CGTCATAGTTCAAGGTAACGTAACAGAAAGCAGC :: MET
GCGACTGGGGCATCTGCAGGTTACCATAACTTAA :: NOT MET
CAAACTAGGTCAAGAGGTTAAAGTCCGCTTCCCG :: MET
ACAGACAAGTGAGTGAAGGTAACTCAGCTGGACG :: NOT MET
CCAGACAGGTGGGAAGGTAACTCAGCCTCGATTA :: NOT MET
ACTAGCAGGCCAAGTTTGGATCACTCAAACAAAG :: NOT MET

## Task Evaluate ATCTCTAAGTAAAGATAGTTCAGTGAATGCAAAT : PBM binding z-score at minimum 2?
## Result NOT MET

## Task Evaluate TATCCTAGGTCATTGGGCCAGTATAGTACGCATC : PBM binding z-score at minimum 2?
## Result MET

## Task Evaluate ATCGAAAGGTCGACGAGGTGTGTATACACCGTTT : PBM binding z-score at minimum 2?
## Result MET

## Task Evaluate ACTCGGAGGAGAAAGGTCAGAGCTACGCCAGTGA : PBM binding z-score at minimum 2?
## Result MET

## Task Evaluate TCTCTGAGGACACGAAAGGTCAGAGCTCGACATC : PBM binding z-score at minimum 2?
## Result MET

====

Known PBM binding z-score of a selection of sequences
- System: RARb:RXRa (NR concentration 270 nM, RXRa partner concentration 90 nM)
- measurement_description: PBM binding z-score (relative to random genomic background probes); higher = stronger binding; sequences stand for … in GC…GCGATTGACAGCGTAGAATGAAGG
The response must contain the number and no unit.

## Task Endpoint output: PBM binding z-score of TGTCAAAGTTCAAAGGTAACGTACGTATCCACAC . Value?
## Result 4.92

## Task Endpoint output: PBM binding z-score of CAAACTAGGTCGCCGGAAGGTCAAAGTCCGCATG . Value?
## Result 3.94

## Task Endpoint output: PBM binding z-score of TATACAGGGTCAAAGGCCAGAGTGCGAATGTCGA . Value?
## Result 4.59

## Task Endpoint output: PBM binding z-score of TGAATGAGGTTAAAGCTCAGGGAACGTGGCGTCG . Value?
## Result 1.78

## Task Endpoint output: PBM binding z-score of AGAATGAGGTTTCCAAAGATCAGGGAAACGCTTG . Value?
## Result -0.151
